The following compounds are listed with their measured Average skin reaction values.
Species: Cavia porcellus
METHOD SUMMARY: Average skin reaction in guinea pig sensitized to the sesquiterpene alantolactone (toxic)
Format: functional
Give the value as a plain number.

Prompt line: Please indicate Average skin reaction recorded for C=C1CC2(CCCc3ccccc32)OC1=O (centres undefined)
Response line: 1.7

Others:
Prompt line: Please indicate Average skin reaction recorded for C=C1CC(CCCCCCCCCCC)OC1=O (centres undefined)
Response line: 0.9

Prompt line: Please indicate Average skin reaction recorded for C=C1CC(c2ccccc2)OC1=O (centres undefined)
Response line: 1.1

Prompt line: Please indicate Average skin reaction recorded for C=C1CC(C)(c2ccccc2)OC1=O (centres undefined)
Response line: 1.1

----------
The following compounds are listed with their measured Average skin reaction values.
Species on record: Cavia porcellus
METHOD SUMMARY: Average skin reaction in guinea pig sensitized to alpha-methylene-gamma-butyrolactone
Type: functional
Give the value as a plain number.

Some solved cases for reference:
Prompt line: Please indicate Average skin reaction recorded for C=C1CC(CC)OC1=O (stereo not drawn)
Response line: 0

Prompt line: Please indicate Average skin reaction recorded for C=C1CC2(CCCc3ccccc32)OC1=O (stereo not drawn)
Response line: 0.9

Prompt line: Please indicate Average skin reaction recorded for C=C1CC(C)(CC)OC1=O (stereo not drawn)
Response line: 0

Prompt line: Please indicate Average skin reaction recorded for C=C1C(=O)OC(c2ccccc2)(c2ccccc2)C1C(=O)OCC (stereo not drawn)
Response line: 0

Prompt line: Please indicate Average skin reaction recorded for C=C1CC(C)(C)OC1=O
Response line: 0.5

Prompt line: Please indicate Average skin reaction recorded for C=C1CC2(OC1=O)C(C)CCCC2C (stereo not drawn)
Response line: 0

Prompt line: Please indicate Average skin reaction recorded for C=C1CC(C(C)(C)C)OC1=O (stereo not drawn)
Response line: 0.1

Prompt line: Please indicate Average skin reaction recorded for C=C1CC2(CCC3(CC2)CC(=C)C(=O)O3)OC1=O (stereo not drawn)
Response line: 0

Prompt line: Please indicate Average skin reaction recorded for C=C1C(=O)OC2C3CCC(C3)C12 (stereo not drawn)
Response line: 0.1

Prompt line: Please indicate Average skin reaction recorded for C=C1CC2(CC[C@@]3(C)C(CC[C@H]4[C@@H]5CC[C@H](C(C)CCCC(C)C)[C@@]5(C)CC[C@@H]43)C2)OC1=O (stereo partly drawn)
Response line: 0

Others:
Prompt line: Please indicate Average skin reaction recorded for C=C1CC2(CCCCCC2)OC1=O
Response line: 0.1

Prompt line: Please indicate Average skin reaction recorded for C=C1CC2(OC1=O)C1CC3CC(C1)CC2C3 (stereo not drawn)
Response line: 0.1

Prompt line: Please indicate Average skin reaction recorded for C=C1C(=O)O[C@@H]2C[C@@]3(C)CCCC(=C)[C@@H]3C[C@H]12 [ISOALANTOLACTONE]
Response line: 0

Prompt line: Please indicate Average skin reaction recorded for C=C1CC2(CCCC2)OC1=O
Response line: 0

Prompt line: Please indicate Average skin reaction recorded for C=C1C(=O)OC2CCCCC12 (stereo not drawn)
Response line: 0.1

Prompt line: Please indicate Average skin reaction recorded for C=C1CC2(CCC(C(C)(C)C)CC2)OC1=O (stereo not drawn)
Response line: 0

----------
Species on record: Cavia porcellus
METHOD SUMMARY: Average skin reaction in guinea pig sensitized to alpha-methylene-gamma-butyrolactone
Format: functional
MEASURE NAME: Average skin reaction
Give the value as a plain number.

Prompt line: Please indicate Average skin reaction recorded for C=C1CC(C)OC1=O (configuration not stated)
Response line: 0.6

Prompt line: Please indicate Average skin reaction recorded for C=C1CC2(CCCCC2)OC1=O
Response line: 0.1

Prompt line: Please indicate Average skin reaction recorded for C=C1CC(C)(CC(C)(C)C)OC1=O (configuration not stated)
Response line: 0.1

Prompt line: Please indicate Average skin reaction recorded for C=C1CC2(OC1=O)C1CCC(C1)C2(C)C (configuration not stated)
Response line: 0

Prompt line: Please indicate Average skin reaction recorded for C=C1CC(CC)(CC)OC1=O
Response line: 0

Others:
Prompt line: Please indicate Average skin reaction recorded for C=C1CCOC1=O
Response line: 1.9

Prompt line: Please indicate Average skin reaction recorded for C=C1CC2(CC3CC4(CC(=C)C(=O)O4)CC3C2)OC1=O (configuration not stated)
Response line: 0

Prompt line: Please indicate Average skin reaction recorded for C=C1CC2(CC3CCC2C3)OC1=O (configuration not stated)
Response line: 0
